System: Plasmodium berghei
Experiment: Screen against P. berghei liver stage (PbLuc), transformed with Luciferase, at 2uM
Assay type: functional, HepG2
Conditions: tested at 2 uM
In all, about 68,000 compounds went through this assay and about 2,700 (4%) showed an effect of 50% or more. For the sample, strong results were picked, then their nearest neighbours and some compounds at random.
endpoint: INHIBITION

For this compound ( Cc1nnc(SCC(=O)NCc2ccc3c(c2)CCC(=O)N3)n1C ), measured INHIBITION is 26.03%

Form field INHIBITION, entry CCCc1cc(C(=O)N(C)Cc2ccc(OC)c3ncccc23)n(C)n1 : 58.56%

The compound Cc1cnn(CC2CCCCN2C(=O)c2ccc3[nH]nnc3c2)c1 (stereo not drawn) showed INHIBITION equal to 39.32%

According to the records, this compound Cc1cc(C)cc(N2CCN(Cc3cccc(CCN)c3)CC2=O)c1 displays INHIBITION of 10.92%

Value of measured INHIBITION for the entry CCc1ccc(C(C)NC(=O)N2CCC(n3cncn3)CC2)cc1 (stereo not drawn) : 38.06%

GET /value?item= CCN1CCOCC2(CCCN(C(=O)c3cccc(O)c3)C2)C1 (stereo not drawn) &field=INHIBITION returns 24.36%

Form: compound = COc1ccc2cc(C(=O)N3CCCCC3Cn3cccn3)[nH]c2c1 (stereo not drawn) ; INHIBITION = -28.85%

Just so you know, measured INHIBITION for Cc1cnn(CC2CCCN2C(=O)c2ccc3[nH]nnc3c2)c1 (stereo not drawn) came out at 53.72%

# INHIBITION (compound: CCC(=O)Nc1ccc2c(c1)C1(CCOCC1)CN2CCF ) is -24.5%

Entry Cc1cnn(CC2CCCN2C(=O)c2ccc3[nH]c(=O)[nH]c3c2)c1 (stereo not drawn) — recorded INHIBITION = -73.25%

# INHIBITION (compound: O=c1c2sccc2nc2n1CCN(Cc1ccccc1C(F)(F)F)CC2 ) is 26.56%

The reported value for O=C1CCC2(CCN(Cc3cscn3)CC2)CN1CCCO in terms of INHIBITION is -8.8%

Given item CCCc1cc(C(=O)N(C)Cc2cccc3cnccc23)n(C)n1 , the value recorded as its INHIBITION is 19.91%

response.value for CCCc1cc(C(=O)N(C)Cc2cccc3ncccc23)n(C)n1 (field: INHIBITION) = -24.24%

Sample CN1CCOC[C@H]1c1nc(-c2cccnc2)c[nH]1 ; INHIBITION observed: 5.77%

INHIBITION in this record for Cc1cccc(N2CCN(C(=O)NC(C)c3nncn3C)CC2)c1C (stereo not drawn) : 38.76%

Briefly, INHIBITION measured for Cc1cnn(CC2CCCN2C(=O)c2cc3ccccc3[nH]2)c1 (stereo not drawn) : -20.11%

Reported INHIBITION ( O=C(CCC1CCN(C2CSCCSC2)CC1)NCC1CCCO1 (stereo not drawn) ) = -15.37%

Notebook: CCN1CC[C@@]2(C(=O)N3CCOCC3)CCN(S(=O)(=O)CC)CC[C@@H]12 , INHIBITION read as 46.32%

Consider CCc1oc(C(=O)NC(C)Cc2cnccn2)cc1CN1CCCC1 (stereo not drawn) . Its measured INHIBITION is 12.11%

Looking up O=C(CCN1CCCCC1)N1CCC(Cc2ccc(CO)cc2)C1 (stereo not drawn) , I see its INHIBITION listed as 50.61%

Field INHIBITION (entry COCC(=O)N1C[C@H]2CN(Cc3csc(C)n3)C(=O)[C@H]2C1 ) reads -6.13%

Entry COCc1nc(C(=O)NS(=O)(=O)c2c(C)c(C)cc(C)c2C)cs1 — recorded INHIBITION = 18.85%
